# study.system: Replicase polyprotein 1ab (Severe acute respiratory syndrome coronavirus 2)
# assay.protocol: Inhibition of recombinant SARS-CoV-2 main protease expressed in Escherichia coli BL21 using Dabcyl-EDANS and Boc-Abu-Tle-Leu-Gln-AMC as substrate

{"record.smiles": "Cn1c(=O)c2c(nc3n(CC#Cc4ccc(Cl)c(Cl)c4)ccn23)n(C)c1=O", "IC50": "4.7 µM"}

----------
# assay.protocol: Cytotoxicity against African green monkey Vero E6 cells measured after 72 hrs by MTT assay
# Type: toxicity, cell-based, Vero C1008
# assay.conditions: chlorocebus sabaeus

{"record.smiles": "CCC(CC)COC(=O)[C@H](C)N[P@](=O)(OC[C@H]1O[C@@](C#N)(c2ccc3c(N)ncnn23)[C@H](O)[C@@H]1O)Oc1ccccc1", "CC50 at 72 h (mM)": 0.608}
{"record.smiles": "Cn1c(=O)c2c(nc3n2CC=C(O)N3c2ccc(S(N)(=O)=O)cc2)n(C)c1=O", "CC50 at 72 h (mM)": 2.04}
{"record.smiles": "Cn1c(=O)c2c(ncn2CCC(=O)Nc2ccc(S(=O)(=O)Nc3ncccn3)cc2)n(C)c1=O", "CC50 at 72 h (mM)": 3.94}
{"record.smiles": "Cn1cnc2c1c(=O)n(CC(=O)Nc1ccc(S(=O)(=O)Nc3ncccn3)cc1)c(=O)n2C", "CC50 at 72 h (mM)": 1.15}

----------
Measured selectivity ratio values are reported for all entries that follow.
# assay.protocol: Selectivity index, ratio of CC50 for african green monkey Vero E6 cells to IC50 for antiviral activity against SARS-CoV-2 NRC-03-nhCoV infected in african green monkey Vero E6 cells
# Assay type: toxicity, Vero C1008
# assay.conditions: read-out: Ratio CC50/IC50

{"record.smiles": "Cn1c(=O)c2c(ncn2CCC(=O)Nc2ccc(S(=O)(=O)Nc3ncccn3)cc2)n(C)c1=O", "selectivity ratio": 103}
{"record.smiles": "Cn1c(=O)c2c(nc3n2CC=C(O)N3c2ccc(S(N)(=O)=O)cc2)n(C)c1=O", "selectivity ratio": 127}
{"record.smiles": "Cn1cnc2c1c(=O)n(CC(=O)Nc1ccc(S(=O)(=O)Nc3ncccn3)cc1)c(=O)n2C", "selectivity ratio": 129}
